- System Tested: Serine/threonine-protein kinase Nek9 (Homo sapiens, UniProt Q8TD19)
- Sequence (Q8TD19 whole entry): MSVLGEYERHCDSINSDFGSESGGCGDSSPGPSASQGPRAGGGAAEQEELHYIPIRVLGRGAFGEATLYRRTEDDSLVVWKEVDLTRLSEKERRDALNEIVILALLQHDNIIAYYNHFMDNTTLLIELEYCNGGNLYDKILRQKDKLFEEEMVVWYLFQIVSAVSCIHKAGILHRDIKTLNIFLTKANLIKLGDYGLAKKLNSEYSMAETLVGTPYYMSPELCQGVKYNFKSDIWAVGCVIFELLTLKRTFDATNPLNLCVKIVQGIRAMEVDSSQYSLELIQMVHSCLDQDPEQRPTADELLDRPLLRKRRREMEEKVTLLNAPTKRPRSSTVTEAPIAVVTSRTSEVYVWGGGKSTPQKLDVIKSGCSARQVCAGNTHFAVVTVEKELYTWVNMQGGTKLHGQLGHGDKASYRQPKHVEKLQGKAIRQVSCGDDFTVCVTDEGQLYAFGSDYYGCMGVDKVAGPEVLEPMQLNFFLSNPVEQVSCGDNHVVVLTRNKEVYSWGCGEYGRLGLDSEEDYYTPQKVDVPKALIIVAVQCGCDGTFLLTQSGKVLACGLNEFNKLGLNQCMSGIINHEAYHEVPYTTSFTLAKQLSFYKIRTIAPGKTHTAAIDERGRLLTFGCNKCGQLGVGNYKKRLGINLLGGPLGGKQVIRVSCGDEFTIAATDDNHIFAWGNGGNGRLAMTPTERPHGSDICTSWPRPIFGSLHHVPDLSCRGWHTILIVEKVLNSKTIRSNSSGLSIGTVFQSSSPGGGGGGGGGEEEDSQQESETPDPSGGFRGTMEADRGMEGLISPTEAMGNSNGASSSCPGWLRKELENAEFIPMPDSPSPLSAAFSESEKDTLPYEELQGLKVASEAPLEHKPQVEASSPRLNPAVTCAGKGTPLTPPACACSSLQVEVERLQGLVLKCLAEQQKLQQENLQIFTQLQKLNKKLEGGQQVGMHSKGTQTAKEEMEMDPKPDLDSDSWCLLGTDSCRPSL
- Test Summary: Inhibition of NEK9 in human HeLa cells lysate pre incubated for 15 mins followed by ATP acyl phosphate probe addition and measured after 10 mins by LC-MS/MS analysis
- Assay type: subcellular
Readout Label: IC50

Exam item: Given the entry `CCOc1cc(N2CCC(O)CC2)ccc1Nc1ncc2c(n1)N(C)c1ccccc1C(=O)N2C` , report its measured IC50.
Marked response: > 50 µM

###

- System Tested: Serine/threonine-protein kinase ULK3 (Homo sapiens)
- Sequence (Q6PHR2 whole entry): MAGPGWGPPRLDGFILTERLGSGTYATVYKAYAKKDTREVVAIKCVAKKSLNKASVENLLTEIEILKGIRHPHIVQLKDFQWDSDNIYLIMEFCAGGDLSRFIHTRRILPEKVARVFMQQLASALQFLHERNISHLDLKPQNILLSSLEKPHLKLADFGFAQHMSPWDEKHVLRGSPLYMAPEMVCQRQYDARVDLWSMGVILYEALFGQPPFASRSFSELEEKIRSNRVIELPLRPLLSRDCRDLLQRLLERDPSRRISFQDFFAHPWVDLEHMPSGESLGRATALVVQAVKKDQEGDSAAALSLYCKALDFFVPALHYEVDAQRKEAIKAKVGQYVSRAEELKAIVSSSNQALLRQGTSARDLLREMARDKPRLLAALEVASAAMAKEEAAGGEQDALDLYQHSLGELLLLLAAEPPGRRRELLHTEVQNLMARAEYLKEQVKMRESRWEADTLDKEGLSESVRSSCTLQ
- Test Summary: Inhibition of ULK3 in human HeLa cells lysate pre incubated for 15 mins followed by ADP acyl phosphate probe addition and measured after 10 mins by LC-MS/MS analysis
- Format: subcellular
Readout Label: IC50

Exam item: Report IC50 for `CCOc1cc(N2CCC(O)CC2)ccc1Nc1ncc2c(n1)N(C)c1ccccc1C(=O)N2C` please.
Marked response: > 50 µM
